# target entity: human cyclin-dependent kinase 2 (Cdk2) (Homo sapiens, UniProt P24941)
# Construct: poly-histidine; made in house; host or cells: E. coli
# measurement description: Kinetic thiol consumption assay with wild type Cdk2 (C177)
# Assay type: binding
# Parameters: unit not given here
# assay setup: 500 μM ligand, 5 μM thiol, phosphate buffer pH 8
endpoint name: Rate constant with Cdk2 (k(Cdk2))

Rate constant with Cdk2 (k(Cdk2)) measured on C=CC(=O)N1CCN(S(C)(=O)=O)CC1c1ccccc1 (stereo not drawn) = 0.01181

Entry under test: C=CC(=O)Nc1sc2c(c1C(=O)NC1CC1)CCC2 . Its Rate constant with Cdk2 (k(Cdk2)) was 0.743

Briefly, Rate constant with Cdk2 (k(Cdk2)) measured for C=CC(=O)N(CC(=O)N1CCCC1)CC1CCCO1 (stereo not drawn) : 0.00195

The recorded Rate constant with Cdk2 (k(Cdk2)) for C=CC(=O)N1CCc2sccc2C1c1cccs1 (stereo not drawn) is 0.02004

Note to self: Rate constant with Cdk2 (k(Cdk2)) recorded for C=CC(=O)N(CCCN1CCOCC1)Cc1ccncc1 was 0.00341

1: C=CC(=O)Nc1ccc2c(c1)OC1(CCCC1)O2
2: C=CC(=O)N1CCN(C(=O)OC(C)(C)C)CC1
3: C=CC(=O)Nc1ccc(C(=O)c2ccccc2)cc1
4: C=CC(=O)N1CCC(NC(=O)C2CCC2)C1 (stereo not drawn)
5: C=CC(=O)N1CCCC(N2C(=O)CC3(CCCC3)C2=O)C1 (stereo not drawn)
Query string: Hello, I need these entries ordered by Rate constant with Cdk2 (k(Cdk2)), highest reading first. Thanks! When ranking, write the labels in the order the request describes.
Result string: 3, 2, 4, 1, 5
(3: 0.2317, 2: 0.00892, 4: 0.00595, 1: 0.00267, 5: 0.00116)

P: C=CC(=O)N1CCN(c2cc(N3CCOCC3)ncn2)CC1
Q: C=CC(=O)N1CCN(C(=O)OCC)CC1c1cccs1 (stereo not drawn)
R: C=CC(=O)N1CC(OCCN(CC)CC)C1
S: C=CC(=O)NCCN1CCOCC1
T: C=CC(=O)N1CC(Cc2ccccc2)C1
Query string: Task field, ranking: reported Rate constant with Cdk2 (k(Cdk2)), descending order. Provide the labels, sequenced as the question asks.
Result string: T, Q, P, S, R
(T: 0.0241, Q: 0.01328, P: 0.0076, S: 0.00428, R: 0.00205)

P: C=CC(=O)N1CCCC2(CCCc3ccccc32)C1 (stereo not drawn)
Q: C=CC(=O)NCc1ccc(-c2ccccc2)cc1
R: C=CC(=O)N1CC2CCCCCCC21 (stereo not drawn)
Query string: # rank_down: sort by Rate constant with Cdk2 (k(Cdk2)), max first Returns: the labels arranged in the requested order.
Result string: R, P, Q

1: C=CC(=O)Nc1cccc(Nc2ncnc3cc(OC)c(OC)cc23)c1
2: C=CC(=O)NCCCN(C(=O)C1CCC1)C1CC1
3: C=CC(=O)NCC1CCCN1S(=O)(=O)c1ccc(C)cc1 (stereo not drawn)
Query string: List the 3 entries from lowest Rate constant with Cdk2 (k(Cdk2)) to highest Rate constant with Cdk2 (k(Cdk2)) value. Respond with the label ranking, as requested.
Result string: 2, 3, 1

* * *

# target entity: Cdk2(S181C) (C177A) (Homo sapiens, UniProt P24941, C177A/S181C)
# Construct: poly-histidine; made in house; host or cells: E. coli
# measurement description: Kinetic thiol consumption assay with Cdk2 mutant S181C
# Format: binding
# Parameters: key: rate constant with Cdk2 ÷ rate constant with model thiol (fold)
# assay setup: Cdk2 S181C, additional mutation C177A
endpoint name: Rate enhancement, Cdk2 S181C

Past entries and their recorded results:
Considering C=CC(=O)N1CC(OCCN(CC)CC)C1 , its Rate enhancement, Cdk2 S181C with Cdk2(S181C) (C177A) (Homo sapiens, UniProt P24941, C177A/S181C) was recorded as 2.572

Tested on Cdk2(S181C) (C177A) (Homo sapiens, UniProt P24941, C177A/S181C), the item C=CC(=O)N1CC(CCN2CCCC2=O)c2ccccc21 (centres unmarked) showed Rate enhancement, Cdk2 S181C equal to 0.5754

Value sought: Rate enhancement, Cdk2 S181C, system Cdk2(S181C) (C177A) (Homo sapiens, UniProt P24941, C177A/S181C), item C=CC(=O)NCCc1c[nH]c2ccccc12 . Result: 0.5058

a: C=CC(=O)Nc1cccc(-c2cc3ccccc3[nH]2)c1
b: C=CC(=O)NC(Cc1ccccc1)C(O)CF (centres unmarked)
Query string: Larger number for Rate enhancement, Cdk2 S181C: a , or b ? State the label of the item chosen.
Result string: b

* * *

# target entity: Cdk2(S181C) (C177A) (Homo sapiens, UniProt P24941, C177A/S181C)
# Construct: poly-histidine; made in house; host or cells: E. coli
# measurement description: Kinetic thiol consumption assay with Cdk2 mutant S181C
# Format: binding
# Design: key: rate constant with Cdk2 ÷ rate constant with model thiol (fold)
# assay setup: Cdk2 S181C, additional mutation C177A
# Description: To wells containing 150 μL thiol (Cdk2 or model thiol) (5 μM) in degassed phosphate buffer (pH 8) was added immobilized TCEP beads (2% v/v). After incubation of the fluorescence plates for 1 hour at room temperature, fluorescence measurements (excitation/emission of 380/470 nm) were taken on a PerkinElmer EnVision multilabel plate reader and processed with EnVision Workstation version 1.12. Fluorescence measurements were normalized against a DMSO/thiol only control and plotted against time. […]
endpoint name: Rate enhancement, Cdk2 S181C

# molecule C=CC(=O)Nc1cccc(Nc2ncnc3cc(OC)c(OC)cc23)c1 ; its Rate enhancement, Cdk2 S181C = 1.037

So for C=CC(=O)N1CCN(c2cc(N3CCOCC3)ncn2)CC1 , the logged Rate enhancement, Cdk2 S181C turned out to be 2.608

Record summary for C=CC(=O)N(Cc1ccco1)Cc1cc2cc(C)ccc2o1 : reported Rate enhancement, Cdk2 S181C = 0.8912

I: C=CC(=O)N1CCC(c2nnc3n2CCC3)CC1
II: C=CC(=O)N1CCN(Cc2ccc(Cl)cc2)CC1
Query string: Choose between I and II : whose measured Rate enhancement, Cdk2 S181C value is numerically larger? State the label of the item chosen.
Result string: I
(I: 1.69, II: 0.8531)

* * *

# target entity: Cdk2(C177A, F80C) (Homo sapiens, UniProt P24941, C177A/F80C)
# Construct: poly-histidine; made in house; host or cells: E. coli
# measurement description: Kinetic thiol consumption assay with Cdk2 mutant F80C, incl. kobs versus concentration (Kd, k2)
# Type: binding
# assay setup: Protein: Cdk2; cysteine position F80C; additional mutation C177A; in h^-1
endpoint name: Rate constant with Cdk2 F80C

As a guide, the following entries are already answered.
Rate constant with Cdk2 F80C of C#CCN1CCCN(C(=O)C=C)CC1 , assay on Cdk2(C177A, F80C) (Homo sapiens, UniProt P24941, C177A/F80C), is 0.001711

Summary: C=CC(=O)NCC1CCCN1S(=O)(=O)c1ccc(C)cc1 (centres unmarked) , Cdk2(C177A, F80C) (Homo sapiens, UniProt P24941, C177A/F80C), Rate constant with Cdk2 F80C = 0.003604

I: C=CC(=O)Nc1cccc(C(F)(F)F)c1 [EL-1007]
II: C=CC(=O)N1CCC(NC(=O)C2CCC2)C1 (centres unmarked)
Query string: Endpoint returns whichever of I and II has the numerically higher Rate constant with Cdk2 F80C. Answer = label.
Result string: I

* * *

# target entity: Cdk2[C177A, F80C, K278C] (Homo sapiens, UniProt P24941, C177A/F80C/K278C)
# Construct: poly-histidine; made in house; host or cells: E. coli
# measurement description: Kinetic thiol consumption assay with mutant Cdk2 as model thiol
# Format: binding
# Design: unit not given here
# assay setup: 500 μM ligand, 5 μM thiol, phosphate buffer pH 8
endpoint name: Rate constant with Cdk2[C177A, F80C, K278C] (k(Cdk2_mut))

Example entries begin here.
C=CC(=O)N1CCCC(C(=O)OCC)C1 (centres unmarked) yielded Rate constant with Cdk2[C177A, F80C, K278C] (k(Cdk2_mut)) of 0.00336

For reference, reported Rate constant with Cdk2[C177A, F80C, K278C] (k(Cdk2_mut)) for C=CC(=O)N1CCC2CCC(C1)N2C (centres unmarked) stands at 0.00505

# Rate constant with Cdk2[C177A, F80C, K278C] (k(Cdk2_mut)) (molecule: C=CC(=O)N1CCCC(N2C(=O)CC3(CCCC3)C2=O)C1 (centres unmarked) ) is 0.00395

The recorded Rate constant with Cdk2[C177A, F80C, K278C] (k(Cdk2_mut)) for entry C=CC(=O)NC1(C2CC2)CC1 equals 0.00346

a: C=CC(=O)N1CCC2(CCCN(Cc3ccccc3)C2)C1 (centres unmarked)
b: C=CC(=O)N1C(=O)CC(c2ccccc2)N(C(=O)C=C)c2ccccc21 (centres unmarked)
Query string: Please compare: a and b . Report which one has the smaller Rate constant with Cdk2[C177A, F80C, K278C] (k(Cdk2_mut)) value. Please reply using the label of the selected record.
Result string: a

A: C=CC(=O)N1CCCCCC1c1cccnc1 (centres unmarked)
B: C=CC(=O)N(Cc1ccco1)Cc1cc2cc(C)ccc2o1
Query string: Sorting by Rate constant with Cdk2[C177A, F80C, K278C] (k(Cdk2_mut)) in descending order, would A or B appear first? Output the label that corresponds to your choice.
Result string: B
